- Substrate: F protein of hMPV A virus (human metapneumovirus subtype A)
- assay: cell-based or functional assay
assayMetric: PRNT IC50

**Query** Which measured PRNT IC50 value corresponds to M1A01 (antibody, V domains shown) VH: QVQLVQSGAEVKKPGSSVKVSCWASGGTFDNAINWLRQAPGQGPEWMGRIIPLVDIVNRAPKFQDRVSFTADKSTNTVYMVLNSLTSDDTAVYYCASAFQDGWFDPWGQGTLVTVSS VL: EIVLTQSPATLSLSPGERATLSCRASQSLSRYLAWYQQKPGQAPRLLIYDASNRATGVPARFSGSGSGTDFTLTISSLEPEDFAVYYCHQRHNWITFGQGTRLEIK ?
**Result** 3.41 mg/L

**Query** Which measured PRNT IC50 value corresponds to M3B02 (antibody, V domains shown) VH: EVQLVESGGGLVKPGGSLRISCVASEFTLSGYAMNWVRQVPGKGLEWVSSISSSSSYINYADFVKGRFTISRDNAKNSVFLQLNSLRPEDTALYYCVRERPTAILPYLDLWGRGTLVTVSS VL: QSVLTQPPSVSGAPGQRVTISCTGSSSNIGAGYDVQWYQQSPGTAPKLLIHGNNNRPSGVPDRFSGSKSGTSASLAITGLQAEDEADYYCQSYDRSLSGWVFGGGTKLTVL ?
**Result** 1.06 mg/L

**Query** Which measured PRNT IC50 value corresponds to M3D09 (antibody, V domains shown) VH: QVQLVESGGGVVQSGKSLGLSCIASGFIFSNYALHWVRQAPGKGLEWLSVISYDGTNKYYANSVRGRFTVSRDNSKNTLFLHMNSLGVDDTAMYYCARDPERLADLGRMDFWGRGTLVAVLS VL: DIVMTQSPDSLAVSLGERATINCKSSQSVLFSPNNKNYLAWYQQKPGQPPKLLIYWASTREYGVPERFSGSGSGTDFTLTISSLQAEDVAVYYCQQYNSNPYTFGQGTKLEIR ?
**Result** 2 mg/L

**Query** Which measured PRNT IC50 value corresponds to M3A06 (antibody, V domains shown) VH: EVQLVESGGGLVKPGGSLRLSCAASGFTLTSYSMNWVRQAPGKGLEWVSSISSSSSYIHYADSVKGRFTISRDNAKNSVYLQMNSLRAEDTAAYYCARVARELDPFDMWGQGTVVTVAS VL: QSVLTQPPSVSGAPGQRVTISCTGSSSNIGAGYDVHWYQQLPGTAPKLLVYANNNRPSGVPDRFSGSKSGTSASLAITGLQADDEADYYCQSYDRSLSGSVFGGGTKLTVL ?
**Result** 0.31 mg/L

**Query** Which measured PRNT IC50 value corresponds to M2B07 (antibody, V domains shown) VH: EVQLVESGGGLVRPGGSLRLSCAASGFTFNNYWMHWVRQAPGKGLVWVSHVKSDGSITNYADSVKGRFTISRDNAKNTLYLEMSSLRVEDTAVYYCARESRPYDPLTGSHPDAFDIWGQGTMVTVSS VL: DIVMTQSPDSLAVSLGERATINCKSSESIFYYSNSKSYLAWYRQKPGQPPKLLIYWASTRESGVPDRFSGSGSGTDFTLTISSLQPEDVAVYYCQQYYTNPRTFGQGTRLEIK ?
**Result** 0.625 mg/L
